# target-system: T1, monovalent hVISTA-ECD (amino acids 32-193 of SEQ ID NO: 1 with a 7xHis tail) (human, UniProt Q9H7M9 33-193)
# T1 construct: analyte of the SPR assays; also called huVISTA-His; human VISTA-ECD
# T1 sequence (Q9H7M9 other isoform, or with tags, fused parts or gaps limits assumed): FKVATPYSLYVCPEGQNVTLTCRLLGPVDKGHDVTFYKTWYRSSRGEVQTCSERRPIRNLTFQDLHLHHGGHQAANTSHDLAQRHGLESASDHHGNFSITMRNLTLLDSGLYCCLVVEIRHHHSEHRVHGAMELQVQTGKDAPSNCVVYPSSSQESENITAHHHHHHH
# method-description: SPR 37C, Ab on Protein A, hVISTA-ECD 50-5 nM, pH 6.0, average
quantity-measured: kon (M⁻¹ s⁻¹)
Kindly answer with a numeric value in M⁻¹ s⁻¹, unit omitted.

Lookup: Annotate the binder P1-068748 (antibody, human IgG1, kappa, V domains shown, IgG1.3; also called P1-068748-6) VH: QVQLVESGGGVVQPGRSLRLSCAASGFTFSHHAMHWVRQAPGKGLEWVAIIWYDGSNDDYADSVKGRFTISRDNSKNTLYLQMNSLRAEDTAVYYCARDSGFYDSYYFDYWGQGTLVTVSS VL: EIVLTQSPATLSLSPGERATLSCRASQSVSSSYLAWYQQKPGQAPRLLIYDASNRATGIPARFSGSGSGTDFTLTISSLEPEDFATYYCQQYNSYPYTFGQGTKLEIKR with its measured kon.
Found: 1.4e+06

These data points were gathered from patent US20230192860A1.
